All figures here come from paper PMC3914206.

Quick list: KINOMEscan: CDK9 per entry.
- System name: panel of 442 kinases (Homo sapiens, UniProt P50750)
- Construct: purchased KINOMEscan
- Sequence (P50750 whole entry): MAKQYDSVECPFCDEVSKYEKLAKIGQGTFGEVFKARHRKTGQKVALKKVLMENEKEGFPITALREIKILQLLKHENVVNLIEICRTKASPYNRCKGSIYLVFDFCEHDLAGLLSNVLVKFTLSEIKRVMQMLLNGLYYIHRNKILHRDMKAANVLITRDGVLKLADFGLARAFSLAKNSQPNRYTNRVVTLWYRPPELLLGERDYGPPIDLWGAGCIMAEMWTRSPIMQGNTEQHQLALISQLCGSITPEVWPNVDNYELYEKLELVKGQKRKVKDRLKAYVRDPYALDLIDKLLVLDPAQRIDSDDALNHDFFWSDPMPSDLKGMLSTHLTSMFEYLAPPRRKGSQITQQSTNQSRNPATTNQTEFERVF
- Format: binding
- Condition: Compound Concentration 10 µM
Result type: KINOMEscan: CDK9

[[record]]
compound = "COc1cc(C(=O)N2CCC(N3CCN(C)CC3)CC2)ccc1Nc1ncc2c(n1)N1CCc3cccc(c31)C(=O)N2C [Compound 24]"
assay_value = 96

[[record]]
compound = "COc1cc(C(=O)N2CCC(N3CCN(C)CC3)CC2)ccc1Nc1ncc2c(n1)N(C)c1ccccc1C(=O)N2C [15 (LRRK2-IN-1)]"
assay_value = 100

[[record]]
compound = "COc1cc(C(=O)N2CCC(N3CCN(C)CC3)CC2)ccc1Nc1ncc2c(n1)N(C1CCCC1)c1ccccc1C(=O)N2C [Compound 25]"
assay_value = 98

[[record]]
compound = "CCOc1cc(C(=O)N2CCC(N3CCN(C)CC3)CC2)ccc1Nc1ncc2c(n1)N(C1CCCC1)c1ccccc1C(=O)N2C [Compound 26]"
assay_value = 100


---

- System name: panel of 442 kinases (Homo sapiens, UniProt Q13464)
- Construct: purchased KINOMEscan
- Sequence (Q13464 whole entry): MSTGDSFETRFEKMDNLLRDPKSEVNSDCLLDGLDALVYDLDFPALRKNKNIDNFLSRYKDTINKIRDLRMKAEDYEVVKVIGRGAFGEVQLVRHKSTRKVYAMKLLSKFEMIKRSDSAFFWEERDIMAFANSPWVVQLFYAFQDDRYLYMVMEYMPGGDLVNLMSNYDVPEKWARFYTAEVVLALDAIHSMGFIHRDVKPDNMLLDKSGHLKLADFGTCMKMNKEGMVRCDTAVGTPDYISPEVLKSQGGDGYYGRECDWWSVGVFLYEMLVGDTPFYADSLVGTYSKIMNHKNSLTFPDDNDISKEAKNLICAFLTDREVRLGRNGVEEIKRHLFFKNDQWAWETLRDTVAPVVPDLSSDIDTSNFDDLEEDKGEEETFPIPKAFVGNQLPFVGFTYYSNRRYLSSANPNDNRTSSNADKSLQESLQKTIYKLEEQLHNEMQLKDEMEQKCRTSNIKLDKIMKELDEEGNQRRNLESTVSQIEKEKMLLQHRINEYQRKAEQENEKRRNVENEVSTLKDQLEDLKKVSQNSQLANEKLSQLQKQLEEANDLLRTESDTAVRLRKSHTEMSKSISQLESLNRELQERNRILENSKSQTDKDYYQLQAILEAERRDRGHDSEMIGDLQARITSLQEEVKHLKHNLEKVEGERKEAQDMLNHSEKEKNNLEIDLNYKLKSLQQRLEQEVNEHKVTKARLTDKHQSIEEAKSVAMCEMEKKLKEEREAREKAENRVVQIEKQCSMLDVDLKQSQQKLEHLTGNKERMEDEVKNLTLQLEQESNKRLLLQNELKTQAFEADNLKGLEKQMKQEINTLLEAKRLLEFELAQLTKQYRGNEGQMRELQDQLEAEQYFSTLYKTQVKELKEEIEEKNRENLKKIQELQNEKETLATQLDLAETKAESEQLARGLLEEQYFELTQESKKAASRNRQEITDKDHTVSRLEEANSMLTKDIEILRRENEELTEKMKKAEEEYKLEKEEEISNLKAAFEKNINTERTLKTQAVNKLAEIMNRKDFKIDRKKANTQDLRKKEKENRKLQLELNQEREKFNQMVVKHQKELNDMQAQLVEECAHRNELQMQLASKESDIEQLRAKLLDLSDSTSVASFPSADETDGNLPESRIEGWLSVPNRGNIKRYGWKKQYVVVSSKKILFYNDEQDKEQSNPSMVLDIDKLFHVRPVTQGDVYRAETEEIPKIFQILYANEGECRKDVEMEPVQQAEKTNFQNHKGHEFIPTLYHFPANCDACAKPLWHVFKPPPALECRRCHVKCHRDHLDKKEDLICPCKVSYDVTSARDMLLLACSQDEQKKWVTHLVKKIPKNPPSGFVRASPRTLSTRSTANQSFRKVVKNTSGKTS
- Type: binding
- Condition: Compound Concentration 10 µM
Quick list: KINOMEscan: ROCK1 per entry.
Result type: KINOMEscan: ROCK1

[[record]]
smiles_data = "COc1cc(C(=O)N2CCC(N3CCN(C)CC3)CC2)ccc1Nc1ncc2c(n1)N(C)c1ccccc1C(=O)N2C"
result_type = "KINOMEscan: ROCK1"
assay_value = 100

[[record]]
smiles_data = "COc1cc(C(=O)N2CCC(N3CCN(C)CC3)CC2)ccc1Nc1ncc2c(n1)N(C1CCCC1)c1ccccc1C(=O)N2C"
result_type = "KINOMEscan: ROCK1"
assay_value = 74

[[record]]
smiles_data = "CCOc1cc(C(=O)N2CCC(N3CCN(C)CC3)CC2)ccc1Nc1ncc2c(n1)N(C1CCCC1)c1ccccc1C(=O)N2C"
result_type = "KINOMEscan: ROCK1"
assay_value = 77

[[record]]
smiles_data = "COc1cc(C(=O)N2CCC(N3CCN(C)CC3)CC2)ccc1Nc1ncc2c(n1)N1CCc3cccc(c31)C(=O)N2C"
result_type = "KINOMEscan: ROCK1"
assay_value = 64


---

- System name: panel of 442 kinases (Homo sapiens)
- Construct: purchased KINOMEscan
- Type: binding
- Condition: Compound Concentration 10 µM
Result type: KINOMEscan: RPS6KA4(Kin.Dom.2-C-terminal)

[[record]]
smiles_data = "CCOc1cc(C(=O)N2CCC(N3CCN(C)CC3)CC2)ccc1Nc1ncc2c(n1)N(C1CCCC1)c1ccccc1C(=O)N2C"
assay_value = 100

[[record]]
smiles_data = "COc1cc(C(=O)N2CCC(N3CCN(C)CC3)CC2)ccc1Nc1ncc2c(n1)N(C)c1ccccc1C(=O)N2C"
assay_value = 46

[[record]]
smiles_data = "COc1cc(C(=O)N2CCC(N3CCN(C)CC3)CC2)ccc1Nc1ncc2c(n1)N(C1CCCC1)c1ccccc1C(=O)N2C"
assay_value = 100

[[record]]
smiles_data = "COc1cc(C(=O)N2CCC(N3CCN(C)CC3)CC2)ccc1Nc1ncc2c(n1)N1CCc3cccc(c31)C(=O)N2C"
assay_value = 0.65


---

Quick list: KINOMEscan: PRKD2 per entry.
- System name: panel of 442 kinases (Homo sapiens)
- Construct: purchased KINOMEscan
- Type: binding
- Condition: Compound Concentration 10 µM
Result type: KINOMEscan: PRKD2

[[record]]
smiles_data = "CCOc1cc(C(=O)N2CCC(N3CCN(C)CC3)CC2)ccc1Nc1ncc2c(n1)N(C1CCCC1)c1ccccc1C(=O)N2C"
system_name = "panel of 442 kinases (Homo sapiens)"
assay_value = 100

[[record]]
smiles_data = "COc1cc(C(=O)N2CCC(N3CCN(C)CC3)CC2)ccc1Nc1ncc2c(n1)N(C)c1ccccc1C(=O)N2C"
system_name = "panel of 442 kinases (Homo sapiens)"
assay_value = 59

[[record]]
smiles_data = "COc1cc(C(=O)N2CCC(N3CCN(C)CC3)CC2)ccc1Nc1ncc2c(n1)N1CCc3cccc(c31)C(=O)N2C"
system_name = "panel of 442 kinases (Homo sapiens)"
assay_value = 30

[[record]]
smiles_data = "COc1cc(C(=O)N2CCC(N3CCN(C)CC3)CC2)ccc1Nc1ncc2c(n1)N(C1CCCC1)c1ccccc1C(=O)N2C"
system_name = "panel of 442 kinases (Homo sapiens)"
assay_value = 87

